test: Solubility in aqueous buffer / enzyme assay conditions; assay type: physicochemical; details: PBS with 5% DMSO, aqueous with cosolvent or surfactant or cyclodextrin, kinetic from dmso stock; read-out: solubility in aqueous environments
measure-name: solubility

Record request: solubility value, item CCC(CC)COC(=O)[C@H](C)NP(=O)(OCCc1cn(Cc2cnc(C)nc2N)nn1)Oc1ccccc1 (stereo partly shown) [compound 12]
< 300 µM

* * *

Recorded IC50 for the following compounds
molecular target: UniProtKB P0AFG3; experiment: E. coli OGDH E1 inhibitory activity assay (DCPIP reduction); assay type: biochemical; conditions: read-out: IC50 (μM ± SEM); [TPP] = 60 µM
Please reply with the bare figure in µM and do not write the unit itself.

Record request: IC50 value, item Cc1ncc(Cn2cc(CCCC(C(=O)[O-])C(=O)[O-])nn2)c(N)n1.[K+].[K+] [14b]
67

Record request: IC50 value, item Cc1ncc(Cn2cc(CCCCC(=O)[O-])nn2)c(N)n1.[K+] [16b]
273

Record request: IC50 value, item Cc1ncc(Cn2cc(CCCC(=O)[O-])nn2)c(N)n1.[K+] [16a]
316

Record request: IC50 value, item Cc1ncc(Cn2cc(CCC(C(=O)[O-])C(=O)[O-])nn2)c(N)n1.[K+].[K+] [14a]
105

* * *

Recorded inhibition at 250 µM for the following molecules
biological target: A. viridans PO (Aerococcus viridans); test: A. viridans PO inhibitory activity assay (quinoneimine dye); assay type: biochemical; settings: [Compound] = [TPP] = 250 μM; read-out: % Inhibition (1:1)
Sequence (A9X9K8 entry or part of it): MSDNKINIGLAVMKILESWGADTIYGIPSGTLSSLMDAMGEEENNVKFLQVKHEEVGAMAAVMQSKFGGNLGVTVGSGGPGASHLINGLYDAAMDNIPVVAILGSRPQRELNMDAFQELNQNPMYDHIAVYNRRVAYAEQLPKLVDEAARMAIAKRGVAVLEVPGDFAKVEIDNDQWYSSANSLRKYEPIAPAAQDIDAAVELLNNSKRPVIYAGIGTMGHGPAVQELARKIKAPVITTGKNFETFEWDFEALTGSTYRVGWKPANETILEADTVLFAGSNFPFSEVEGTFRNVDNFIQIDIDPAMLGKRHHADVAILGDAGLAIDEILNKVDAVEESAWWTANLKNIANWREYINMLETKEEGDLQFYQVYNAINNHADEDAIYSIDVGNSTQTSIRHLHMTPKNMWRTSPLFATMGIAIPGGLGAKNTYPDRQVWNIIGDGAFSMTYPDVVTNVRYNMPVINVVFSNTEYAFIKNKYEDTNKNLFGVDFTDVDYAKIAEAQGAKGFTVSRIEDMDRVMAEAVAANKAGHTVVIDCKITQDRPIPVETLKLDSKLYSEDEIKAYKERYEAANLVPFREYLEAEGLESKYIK
Please reply with the bare figure in % and do not write the unit itself.

molecule	inhibition at 250 µM, %
COC(=O)C(CCCc1cn(Cc2cnc(C)nc2N)nn1)C(=O)OC [13b]	29
COC(=O)C(CCc1cn(Cc2cnc(C)nc2N)nn1)C(=O)OC [13a]	26
COC(=O)CCCCc1cn(Cc2cnc(C)nc2N)nn1 [15b]	24
Cc1ncc(Cn2cc(CCCCC(=O)[O-])nn2)c(N)n1.[K+] [16b]	28
Cc1ncc(Cn2cc(CCCC(=O)[O-])nn2)c(N)n1.[K+] [16a]	22
COC(=O)CCCc1cn(Cc2cnc(C)nc2N)nn1 [15a]	21

Record request: inhibition at 250 µM value, item Cc1ncc(Cn2cc(CCC(C(=O)[O-])C(=O)[O-])nn2)c(N)n1.[K+].[K+] [14a]
41

Record request: inhibition at 250 µM value, item Cc1ncc(Cn2cc(CCCC(C(=O)[O-])C(=O)[O-])nn2)c(N)n1.[K+].[K+] [14b]
55

* * *

Target: E. coli OGDH E1 (Escherichia coli)
Sequence (P0AFG3 whole entry): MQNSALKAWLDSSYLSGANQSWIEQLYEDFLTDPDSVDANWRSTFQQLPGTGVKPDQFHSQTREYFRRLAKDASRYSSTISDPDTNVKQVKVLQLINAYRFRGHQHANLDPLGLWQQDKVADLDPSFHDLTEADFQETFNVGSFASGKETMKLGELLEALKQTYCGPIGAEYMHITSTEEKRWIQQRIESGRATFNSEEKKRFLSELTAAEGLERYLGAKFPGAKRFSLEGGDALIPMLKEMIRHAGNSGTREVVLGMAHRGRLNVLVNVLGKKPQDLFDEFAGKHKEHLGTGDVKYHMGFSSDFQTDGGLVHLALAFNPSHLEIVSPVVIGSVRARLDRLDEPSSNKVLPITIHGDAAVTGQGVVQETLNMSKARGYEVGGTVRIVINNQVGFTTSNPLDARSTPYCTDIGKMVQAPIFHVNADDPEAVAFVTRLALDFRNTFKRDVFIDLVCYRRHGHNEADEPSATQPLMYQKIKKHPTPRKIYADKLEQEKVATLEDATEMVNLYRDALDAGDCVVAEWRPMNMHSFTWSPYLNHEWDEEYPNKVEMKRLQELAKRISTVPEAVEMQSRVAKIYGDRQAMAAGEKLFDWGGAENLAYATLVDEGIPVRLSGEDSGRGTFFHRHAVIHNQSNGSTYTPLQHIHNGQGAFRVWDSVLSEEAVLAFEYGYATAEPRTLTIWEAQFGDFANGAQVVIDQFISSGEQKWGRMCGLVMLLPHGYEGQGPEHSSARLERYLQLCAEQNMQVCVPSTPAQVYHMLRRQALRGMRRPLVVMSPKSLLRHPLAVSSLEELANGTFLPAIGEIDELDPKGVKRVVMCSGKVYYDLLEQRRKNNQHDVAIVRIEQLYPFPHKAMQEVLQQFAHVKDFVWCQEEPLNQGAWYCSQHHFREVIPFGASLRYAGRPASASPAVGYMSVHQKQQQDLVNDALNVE
Assay: E. coli OGDH E1 inhibitory activity assay (DCPIP reduction)
Type: biochemical
Conditions: calculated from KM(TPP) 3 µM using [TPP]/IC50 = KM(TPP)/KI; read-out: KI
Experimental: E. coli OGDH E1 was from material donated by R. Frank. E. coli OGDH E1 activity was determined by monitoring DCPIP reduction at 600 nm using a microplate reader (CLARIOstar) and conducted as described[5] with some modifications. […] Specific activity was calculated using the molar extinction coefficient of DCPIP, 21 mM^–1 cm^–1.[28] The IC50 values were calculated from nonlinear regression curve fitting using GraphPad Prism. […]
Recorded Ki for the following molecules
Please reply with the bare figure in µM and do not write the unit itself.

# annotated cases, reported Ki shown
molecule	unit-string	Ki
COC(=O)C(CCCc1cn(Cc2cnc(C)nc2N)nn1)C(=O)OC [13b]	µM	13
COC(=O)C(CCc1cn(Cc2cnc(C)nc2N)nn1)C(=O)OC [13a]	µM	20
COC(=O)CCCc1cn(Cc2cnc(C)nc2N)nn1 [15a]	µM	20

Provide value of Ki for this record tested with E. coli OGDH E1 (Escherichia coli): COC(=O)CCCCc1cn(Cc2cnc(C)nc2N)nn1 [15b]
18
